target: SARS-CoV-2的刺突(S)蛋白的受体结合结构域(RBD) (SARS-CoV-2, UniProt P0DTC2 319-541)
Here the recorded log10 Kd is given for each entry.
value kind: log10 Kd (log10 of the value in nM)

{"binder": "MnC4t2p1_B3 (antibody, V domains shown) VH: EVQLVESGGHLVQPGRSLRLSCAASGFTFDDYAMHWVRQVPGKGLEWVSGISWNGGILDYADSVKGRFTISRDNAKNSLYLHMRSLRTDDTALYYCAKDLRRQDYYADWYFDLWGRGTLVTVSS VL: DIQMIQSPSSVSASVGDRVTITCRASQGISSWLAWYQQKPGKAPKLLIYAASTLLSAVPSRFSGSGSGTDFTLTISSLQPEDFATYYCQQGNSFPFTFGPGTIVDV", "log10 Kd": -1.05}
{"binder": "MnC2t2p1_C11 (antibody, V domains shown) VH: QVQLVQSGAEVKKPGSSVKVSCKASGGTFSRYTIIWVRQAPGQGLEWMGRIIPILDIANYAQKFQGRVTITADKSTSTAYMELSSLRSEDTAVYYCAREGGLDYFGSRNSGWTYTWFDPWGQGTLVTVSS VL: DIQMTQSPSSLSASVGDRVTITCRASQNISSYLNWYQQKPGKAPNLLIYAASSLQSGVPPRFSGSGSGTDFTLTISSLQPEDFATYYCQQSYSTLYSFGQGTKLEIK", "log10 Kd": -1.70}
{"binder": "FnC1t2p1_D4 (antibody, V domains shown) VH: QVQLVQSGSELKKPGASVKVSCKASGYTFLRFAMNWLRQAPGQGLEWMGWIDTNTGTPTYAQGFTGRFVFSLDTSVSTAYLQISSLKAEDTAVYYCARSLRGANLVPWGQGTLVTVSS VL: DIQMTQSPSSLSASVGDRVTITCQASQDVSNYLNWYQQQPGKAPKLLIYDAFNLETGVPSRFSGSGSGTDFTFTISSLQPEDIATYYCQQYDNLPLTFGGGTKVEIK", "log10 Kd": -0.70}
{"binder": "MnC2t1p1_A3 (antibody, V domains shown) VH: EVQLVESGGGLVQPGGSLRLSCAASGFTVSSNYMSWVRQAPGRGLEWVSVIYSGGSTFYADSVKGRFTISRDNSKNTLYLQMNSLRPEDTAVYYCATGARFGESPFDYWGQGTLVTVSS VL: DIQMTQSPSSVSASVGDRVTITCRASQGISSWLAWYQQKPGKAPKLLIYAASSLQSGVPSRFSGSGSGTDFTLTISSLQPEDFATYYCQQANSFPGTFGQGTKVEIK", "log10 Kd": -0.15}
{"binder": "FnC1t2p1_G5 (antibody, V domains shown) VH: QVQLVQSGSELKKPGASVKVSCKASGYTFLRFAMNWLRQAPGQGLEWMGWIDTNTGTPTYAQGFTGRFVFSLDTSVSTAYLQISSLKAEDTAVYYCARSLRGANLVPWGQGTLVTVSS VL: DIQMTQSPSSLSASVGDRVTITCQASQDVSNYLNWYQQQPGKAPKLLIYDAFNLETGVPSRFSGSGSGTDFTFTISSLQPEDIATYYCQQYDNLPLTFGGGTKVEIK", "log10 Kd": -1.00}
{"binder": "MnC4t2p2_A4 (antibody, V domains shown) VH: QVQLVQSGSELKKPGASVKISCKASGYIFINYAMNWVRQAPGQGLEWMGWINTNTGNPTYAQDFTGRFVFSLDTSLSTAYLQISSLEAEDTAVYYCAKIGSRNSLGVWGQGTLVTVSA VL: EIVLTQSPGTLSLSPGERATLSCRASHSVDRSYLAWYQQKPGLAPRLLIYGASSRATGIPDRFSGSGSGTDFTLTISRLEPEDFALYYCQHFGTSSVTFGRGTRLEIK", "log10 Kd": 1.15}

// data source = patent CN116724049A
